# Test system: Fyn (UniProt P06241)
# Sequence (P06241 whole entry, looked up): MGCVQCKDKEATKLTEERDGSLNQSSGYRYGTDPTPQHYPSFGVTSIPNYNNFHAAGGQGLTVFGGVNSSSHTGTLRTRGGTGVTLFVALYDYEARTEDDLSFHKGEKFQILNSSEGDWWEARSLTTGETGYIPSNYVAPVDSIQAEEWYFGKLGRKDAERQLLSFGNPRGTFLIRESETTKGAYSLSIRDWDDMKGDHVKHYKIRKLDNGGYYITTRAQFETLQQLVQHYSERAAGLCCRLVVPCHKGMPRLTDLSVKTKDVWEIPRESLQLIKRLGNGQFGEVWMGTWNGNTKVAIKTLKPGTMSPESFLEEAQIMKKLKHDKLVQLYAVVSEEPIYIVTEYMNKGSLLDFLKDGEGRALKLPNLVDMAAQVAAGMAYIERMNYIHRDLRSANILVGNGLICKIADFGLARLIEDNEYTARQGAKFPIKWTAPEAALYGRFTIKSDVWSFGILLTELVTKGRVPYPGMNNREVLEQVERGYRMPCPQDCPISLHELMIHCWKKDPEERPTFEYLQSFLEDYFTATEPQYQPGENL
# Procedure text: phosphorylation enrichment, bacterial display (enrichment ratio); higher = better substrate or ligand; peptides without Tyr show the background;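 also: 11-residue human phosphosite peptides and single-mutation variants displayed on the E. coli surface, counted by deep sequencing, each peptide's frequency after selection divided by its frequency in the unselected input library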;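 also: frequency after pTyr selection over input frequency; kinase dosed for 20-30% of maximal phosphorylation in three min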
Respond with 1 for phosphorylation enrichment values of 0.5 and above, 0 for values below.

In: Could you tell me if the measured phosphorylation enrichment of CEAMEYPESKQ [BTK_Y511_L512P] reaches 0.5 or more?
Out: 1

In: Please tell me: is the sequence EEGNPYYSGAR [MCCC2_Y520_S523G] at or over 0.5 in terms of phosphorylation enrichment?
Out: 1

In: Record HESEIYCKVCY [CSRP3_Y57] ; criterion: phosphorylation enrichment no lower than 0.5. Met?
Out: 1

In: Identify whether the reported phosphorylation enrichment of the following sequence is 0.5 or greater: SVSNNYIQTLG [CTNND1_Y174]
Out: 0

In: Test whether the sequence LDFNEYFRGLN [HPRT1_Y198_D201G_YF] records phosphorylation enrichment of 0.5 or higher.
Out: 1

Further cases:
In: Quick check: does SEDSEYFKAFE [CASQ2_Y178_YF] have phosphorylation enrichment greater than or equal to 0.5?
Out: 1

In: Given the entry GLPINYTTRRI [LAMA2_Y2894] , answer whether its phosphorylation enrichment meets or surpasses 0.5.
Out: 1

In: Check if phosphorylation enrichment >= 0.5 (inclusive). Item: STILLYHIMAW [GPR143_Y157]
Out: 1

In: Reported phosphorylation enrichment at or above 0.5? PYADPYYDYEI [ZC3H18_Y371]
Out: 1

In: Check this sequence for phosphorylation enrichment at or above 0.5: DLDLTYIFPNI [PTEN_Y27_YF]
Out: 1

In: Please indicate if the recorded phosphorylation enrichment for GTFVIYVRFGG [FLNB_Y1687_YF] meets or exceeds 0.5.
Out: 0

---

# Test system: Fer (mouse)
# Procedure text: phosphorylation enrichment, bacterial display (enrichment ratio); higher = better substrate or ligand; peptides without Tyr show the background
Measured endpoint: phosphorylation enrichment
Numbers only.

Hey, quick one: what's phosphorylation enrichment for each of these?
1. HAVYIYDICHV [TWNK_Y508_V507I]
2. NTCNRYCCDEI [ITGB3_Y660_R662C]
3. LPENPYHSRPR [NDUFA8_Y142]
4. FSLIHYASIVD [MYH7_Y582_G584S]
5. ARLEYYENEKK [IRS1_Y47]
6. HEKFLYFLPAS [DYNC2H1_Y346]

Out:
9.37
0.612
0.384
0.714
0.491
0.931

Working through the 2 sequences below one at a time, give phosphorylation enrichment for each.
1. ITQRAYRRHLL [SCN1A_Y1926_I1922T]
2. GIMEEYQLPYY [BMPR1A_Y453_V450M]

Out:
1: 0.403; 2: 0.942

Need phosphorylation enrichment for each of these sequences.
1. ILQSMYGCDVG [HLA-B_Y123_T118I]
2. TFSPPYYHRNC [HGD_Y333_R330S]

Out:
1: 0.48; 2: 0.497

# batch: return phosphorylation enrichment for each of the 8 sequences below
1. HLMLQYDAVVN [SLC25A32_Y152_R147H]
2. VSFDEYRFRSV [CFTR_Y515_YF]
3. GESQGYDIMEA [MSH2_Y863_P868A]
4. LSPNMYNSKFW [TARSL2_Y457_L461F]
5. SVVVPYELPEV [TP53_Y220_P222L]
6. ISNATYKQIGL [FLT1_Y199_E201Q]
7. FGSRLYKFAFK [FANCD2_Y458_L456R_YF]
8. EAKENYGKTLK [CHL1_Y291_T287A]

Out:
1.81
0.567
0.463
0.808
0.581
0.362
0.311
0.305

// each listed sequence needs a value for phosphorylation enrichment
1. CGTPTCLAPEV [CHEK2_Y390_Y390C]
2. IYETDYYRKGG [INSR_Y1189]
3. YGMQLYQKYMH [GRB14_Y347_N349K]

Out:
1: 0.54; 2: 1.54; 3: 2.09

Batch request: phosphorylation enrichment per item, same order as input.
1. PPKFFDTRKLL [CYBB_Y41_Y41D]
2. VVAHQYSFAPD [TNS3_Y601]
3. RKPDIYERLAS [MCM4_Y459]
4. TESNNYIFKTL [FAM83B_Y637_YF]
5. TRVMEYISRLD [CLTCL1_Y1043]
6. AGIVVYNIIGW [MYH7_Y588_D587V]
7. DSIRDYEDGTE [CLNS1A_Y214_M218T]
8. PVFEVYPLLNC [GATA1_Y78_Q76E]

Out:
[0.941, 0.401, 0.943, 0.597, 0.353, 0.726, 0.766, 0.533]
